- target_entity: Soluble mouse EPOR chimera proteins (erythropoietin receptor) (Mus musculus, UniProt P14753)
- Construct: Soluble mouse EPOR chimera proteins; purchased R&D Systems
- Sequence (P14753 25-249 limits assumed, stated change not applied): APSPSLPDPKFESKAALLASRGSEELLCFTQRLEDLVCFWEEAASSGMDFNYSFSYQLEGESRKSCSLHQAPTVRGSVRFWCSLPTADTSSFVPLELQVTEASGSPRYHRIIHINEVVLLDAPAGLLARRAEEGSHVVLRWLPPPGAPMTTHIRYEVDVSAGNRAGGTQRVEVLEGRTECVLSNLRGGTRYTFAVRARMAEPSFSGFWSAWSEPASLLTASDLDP
- test_summary: Surface plasmon resonance (SPR) binding affinity to erythropoietin receptor
- conditions: association rate, Table 8
- Excerpt: The SPR technique is to measure interactions between biomolecules in real-time by using an optical principle without specific labeling, and is a system analyzing affinity between two molecules and kinetics, i.e., an association rate (Ka) and a dissociation rate (Kd). In detail, real-time SPR analysis may be performed using Reichert SPR Biosensor SR […] instrument (Reichert Inc., NY, USA). […]
Peptide text beside a SMILES is read from it.
Reported Ka values for the following molecules.

In the examples that follow, each entry is paired with its recorded Ka.
Identify Ka associated with the molecule CC(C)[C@H](NC(=O)[C@H](CCCCN)NC(=O)[C@@H](N)[C@@H](C)O)C(=O)N[C@@H](CC(N)=O)C(=O)N[C@@H](Cc1ccccc1)C(=O)N[C@@H](Cc1ccc(O)cc1)C(=O)N[C@@H](C)C(=O)N[C@@H](Cc1c[nH]c2ccccc12)C(=O)N[C@@H](CCCCN)C(=O)N[C@@H](CCCNC(=N)N)C(=O)O [ML3] (H-TKVNFYAWKR-OH; N-terminus and C-terminus assumed)
2.05 × 10^2

Identify Ka associated with the molecule CC(C)C[C@H](NC(=O)[C@H](C)NC(=O)[C@H](CCCNC(=N)N)NC(=O)[C@H](CC(C)C)NC(=O)[C@H](CC(C)C)NC(=O)[C@@H](NC(=O)[C@@H](NC(=O)[C@H](CC(C)C)NC(=O)[C@H](CO)NC(=O)[C@H](CCCNC(=N)N)NC(=O)[C@H](CC(C)C)NC(=O)CNC(=O)[C@H](CO)NC(=O)[C@@H](NC(=O)[C@H](C)NC(=O)[C@H](CCCCN)NC(=O)[C@@H](N)CC(=O)O)C(C)C)[C@@H](C)O)[C@@H](C)O)C(=O)O [ML8] (H-DKAVSGLRSLTTLLRAL-OH; N-terminus and C-terminus assumed)
1.8 × 10^2

# evaluate next
Identify Ka associated with the molecule CC(C)C[C@H](NC(=O)CNC(=O)[C@@H](N)CO)C(=O)N[C@@H](CCCNC(=N)N)C(=O)N[C@@H](CO)C(=O)N[C@@H](CC(C)C)C(=O)N[C@H](C(=O)N[C@H](C(=O)N[C@@H](CC(C)C)C(=O)N[C@@H](CC(C)C)C(=O)N[C@@H](CCCNC(=N)N)C(=O)N[C@@H](C)C(=O)N[C@@H](CC(C)C)C(=O)NCC(=O)O)[C@@H](C)O)[C@@H](C)O [ML5] (H-SGLRSLTTLLRALG-OH; N-terminus and C-terminus assumed)
3.04 × 10^2
